Assay: Cytotoxicity assay (CellTiter-Glo, 72 h), SKOV-3
Assay type: cell-based, human
Conditions: human, SKOV-3 cells (ovarian adenocarcinoma), conc 0.00038147 uM; raw replicate data; read-out: SKOV3 viability (%)

- molecule: "COC1CC2CCC(C)C(O)(O2)C(=O)C(=O)N2CCCCC2C(=O)OC(C(C)CC2CCC(O)C(OC)C2)CCC(C)C=C(C)C(O)C(OC)C(=O)C(C)CC(C)C=CC=CC=C1C (stereo not drawn)"
  viability at 72 h, 0.00038147 uM, %: 97.4
- molecule: "COC1CC2CCC(C)C(O)(O2)C(=O)C(=O)N2CCCCC2C(=O)OC(C(C)CC2CCC(O)C(OC)C2)CC(=O)C(C)C=C(C)C(O)CC(=O)C(C)C=C(C)C=CC=CC=C1C (stereo not drawn)"
  viability at 72 h, 0.00038147 uM, %: 104
- molecule: "CO[C@@H]1/C=C/C=C/[C@@H](C)C[C@@H](C)C(=O)C[C@H](O)/C(C)=C/[C@@H](C)C(=O)C[C@@H]([C@H](C)C[C@@H]2CC[C@@H](O)[C@H](OC)C2)OC(=O)[C@@H]2CCCCN2C(=O)C(=O)[C@]2(O)O[C@@H](CC[C@H]2C)C1"
  viability at 72 h, 0.00038147 uM, %: 97.1
- molecule: "CO[C@H]1C[C@@H]2CC[C@@H](C)[C@@](O)(O2)C(=O)C(=O)N2CCCC[C@H]2C(=O)O[C@H]([C@H](C)C[C@@H]2CC[C@@H](O)[C@H](OC)C2)CC(=O)[C@H](C)/C=C(\\C)[C@@H](O)[C@@H](OC)C(=O)[C@H](C)C[C@H](C)/C=C/C=C/C=C/1C [Compound 1, rapamycin, reference compound]"
  viability at 72 h, 0.00038147 uM, %: 75.1
- molecule: "COC1CC2CCC(C)C(O)(O2)C(=O)C(=O)N2CCCCC2C(=O)OC(C(C)CC2CCC(O)C(OC)C2)CC(=O)C(C)C=C(C)C(O)C(OC)C(=O)C(C)CC(C)C=CCCC=C1C (stereo not drawn)"
  viability at 72 h, 0.00038147 uM, %: 102
- molecule: "CO[C@@H]1C[C@H](C[C@@H](C)[C@@H]2CC(=O)[C@H](C)/C=C(\\C)[C@@H](O)[C@@H](OC)C(=O)[C@H](C)C[C@H](C)/C=C/C=C/C=C(\\C)[C@H](O)C[C@@H]3CC[C@@H](C)[C@@](O)(O3)C(=O)C(=O)N3CCCC[C@H]3C(=O)O2)CC[C@H]1O [Compound 17, (16R)-16-O-demethyl rapamycin]"
  viability at 72 h, 0.00038147 uM, %: 109
- molecule: "CO[C@H]1C[C@@H]2CC[C@@H](C)[C@@](O)(O2)C(=O)C(=O)N2CCCC[C@H]2C(=O)O[C@H]([C@H](C)C[C@@H]2CC[C@@H](O)[C@H](OC)C2)CC(=O)[C@H](C)/C=C(\\C)[C@@H](O)CC[C@H](C)/C=C/C=C/C=C/1C"
  viability at 72 h, 0.00038147 uM, %: 98.2
- molecule: "CO[C@H]1C[C@@H]2CC[C@@H](C)[C@@](O)(O2)C(=O)C(=O)N2CCCC[C@H]2C(=O)O[C@H]([C@H](C)C[C@@H]2CC[C@@H](O)[C@H](OC)C2)CC(=O)[C@H](C)/C=C(\\C)[C@@H](O)CC(=O)[C@H](C)C[C@H](C)/C=C/C=C(C)/C=C/1C"
  viability at 72 h, 0.00038147 uM, %: 97.8
- molecule: "COC1CC2CCC(C)C(O)(O2)C(=O)C(=O)N2CCCCC2C(=O)OC(C(C)CC2CCC(O)C(OC)C2)CC(O)CC(=O)C(C)C=C(C)C(O)CC(=O)C(C)CC(C)C=CC=CC=C1C (stereo not drawn)"
  viability at 72 h, 0.00038147 uM, %: 103
